- Assay info: Relative agonistic activity against opioid receptor delta in mouse vas deferens and opioid receptor mu in guinea pig ileum
- Assay type: functional
Result type: Ratio

INSERT INTO results (chemical_structure, recorded_measurement) VALUES
  ('CO[C@@]12CCC(=O)[C@]3(C)Oc4c(O)ccc5c4[C@@]31CCN(C)[C@@H]2C5', 4),
  ('CN1CC[C@]23c4c5ccc(O)c4O[C@H]2C(=O)CC[C@@]3(OCc2ccccc2)[C@H]1C5', 1.7),
  ('CN1CC[C@]23c4c5ccc(O)c4O[C@@]2(C)C(=O)CC[C@@]3(OCc2ccccc2)[C@H]1C5', 4.6);

---

// reported Selectivity per item
- Assay info: Ratio of binding affinities for opioid receptors kappa and mu
Result type: Selectivity

INSERT INTO measurements (chemical_structure, recorded_measurement) VALUES
  ('CN1CC[C@]23c4c5ccc(O)c4O[C@H]2C(=O)CC[C@@]3(OCc2cccc3ccccc23)[C@H]1C5', 5.1),
  ('CCO[C@@]12CCC(=O)[C@]3(C)Oc4c(O)ccc5c4[C@@]31CCN(CCc1ccccc1)[C@@H]2C5', 520),
  ('C=CCO[C@@]12CCC(=O)[C@@H]3Oc4c(O)ccc5c4[C@@]31CCN(C)[C@@H]2C5', 55),
  ('CN1CC[C@]23c4c5ccc(O)c4O[C@H]2C(=O)CC[C@@]3(OCc2ccccc2)[C@H]1C5', 10),
  ('CO[C@@]12CCC(=O)[C@]3(C)Oc4c(O)ccc5c4[C@@]31CCN(C)[C@@H]2C5', 168),
  ('CN1CC[C@]23c4c5ccc(O)c4O[C@@]2(C)C(=O)CC[C@@]3(OCc2ccccc2)[C@H]1C5', 14),
  ('CN1CC[C@]23c4c5ccc(O)c4O[C@H]2C(=O)CC[C@@]3(OCc2c(Cl)cccc2Cl)[C@H]1C5', 3.2);

---

Here we list compounds with their recorded pKi when tested on Mu-type opioid receptor (Rattus norvegicus, UniProt P33535).
Sequence (P33535 whole entry): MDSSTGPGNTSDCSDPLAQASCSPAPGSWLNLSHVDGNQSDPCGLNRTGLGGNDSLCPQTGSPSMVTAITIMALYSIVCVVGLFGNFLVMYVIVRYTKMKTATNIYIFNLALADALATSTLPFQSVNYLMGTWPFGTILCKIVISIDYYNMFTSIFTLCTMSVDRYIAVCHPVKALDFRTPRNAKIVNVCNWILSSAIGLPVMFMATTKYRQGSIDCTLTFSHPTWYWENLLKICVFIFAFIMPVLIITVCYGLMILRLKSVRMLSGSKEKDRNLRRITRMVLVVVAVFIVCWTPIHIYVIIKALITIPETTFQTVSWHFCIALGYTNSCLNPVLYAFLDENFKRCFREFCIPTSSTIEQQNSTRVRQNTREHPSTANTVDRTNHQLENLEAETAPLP
pKi: −log10 of the molar value.
Result type: pKi

INSERT INTO assay_data (chemical_structure, recorded_measurement) VALUES
  ('CN1CC[C@]23c4c5ccc(O)c4O[C@H]2C(=O)CC[C@@]3(OCc2c(Cl)cccc2Cl)[C@H]1C5', 7.99),
  ('CCO[C@@]12CCC(=O)[C@]3(C)Oc4c(O)ccc5c4[C@@]31CCN(CCc1ccccc1)[C@@H]2C5', 9.80),
  ('C=CCO[C@@]12CCC(=O)[C@@H]3Oc4c(O)ccc5c4[C@@]31CCN(C)[C@@H]2C5', 9.21),
  ('CO[C@@]12CCC(=O)[C@]3(C)Oc4c(O)ccc5c4[C@@]31CCN(C)[C@@H]2C5', 9.82),
  ('CN1CC[C@]23c4c5ccc(O)c4O[C@H]2C(=O)CC[C@@]3(OCc2cccc3ccccc23)[C@H]1C5', 9.74),
  ('CN1CC[C@]23c4c5ccc(O)c4O[C@@]2(C)C(=O)CC[C@@]3(OCc2ccccc2)[C@H]1C5', 9.74),
  ('CN1CC[C@]23c4c5ccc(O)c4O[C@H]2C(=O)CC[C@@]3(OCc2ccccc2)[C@H]1C5', 9.92);

---

- Measurement target: Delta-type opioid receptor (Rattus norvegicus)
- Sequence (P33533 whole entry): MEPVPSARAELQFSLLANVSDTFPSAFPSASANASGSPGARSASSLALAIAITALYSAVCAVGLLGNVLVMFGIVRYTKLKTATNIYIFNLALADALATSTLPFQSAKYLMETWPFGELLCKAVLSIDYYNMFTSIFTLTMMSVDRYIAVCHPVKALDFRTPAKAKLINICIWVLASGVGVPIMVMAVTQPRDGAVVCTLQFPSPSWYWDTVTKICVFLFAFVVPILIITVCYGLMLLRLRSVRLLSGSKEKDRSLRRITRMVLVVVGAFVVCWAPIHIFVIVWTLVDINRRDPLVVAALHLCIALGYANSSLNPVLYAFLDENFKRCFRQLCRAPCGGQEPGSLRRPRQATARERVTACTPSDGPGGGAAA
- Assay info: Inhibition of [3H][Ile5,6]deltorphin II binding to opioid receptor delta from rat brain membranes
// reported log10 Ki per item
Result type: log10 Ki (log10 of the value in nM)

INSERT INTO assay_data (chemical_structure, result_type, recorded_measurement) VALUES
  ('CN1CC[C@]23c4c5ccc(O)c4O[C@@]2(C)C(=O)CC[C@@]3(OCc2ccccc2)[C@H]1C5', 'log10 Ki', 0.56),
  ('CN1CC[C@]23c4c5ccc(O)c4O[C@H]2C(=O)CC[C@@]3(OCc2c(Cl)cccc2Cl)[C@H]1C5', 'log10 Ki', 2.18),
  ('C=CCO[C@@]12CCC(=O)[C@@H]3Oc4c(O)ccc5c4[C@@]31CCN(C)[C@@H]2C5', 'log10 Ki', 1.56),
  ('CO[C@@]12CCC(=O)[C@@H]3Oc4c(O)ccc5c4[C@@]31CCN(C)[C@@H]2C5', 'log10 Ki', 0.68),
  ('CN1CC[C@]23c4c5ccc(O)c4O[C@H]2C(=O)CC[C@@]3(OCc2ccccc2)[C@H]1C5', 'log10 Ki', 0.33),
  ('CN1CC[C@]23c4c5ccc(O)c4O[C@H]2C(=O)CC[C@@]3(OCc2cccc3ccccc23)[C@H]1C5', 'log10 Ki', 0.47),
  ('CCO[C@@]12CCC(=O)[C@]3(C)Oc4c(O)ccc5c4[C@@]31CCN(CCc1ccccc1)[C@@H]2C5', 'log10 Ki', 0.50),
  ('CO[C@@]12CCC(=O)[C@]3(C)Oc4c(O)ccc5c4[C@@]31CCN(C)[C@@H]2C5', 'log10 Ki', 1.12);
